assay: Evaluated for pharmacokinetic parameter half-life in rabbit at the dose 20 mg/kg; assay type: ADME, organism-based, Oryctolagus cuniculus; parameters: dose 20 mg/kg; details: in vivo
READOUT LABEL: half-life (h)

# COMPOUND, half-life (h)
data = [
    ("Nc1nc(/C(=N/O)C(=O)NC2C(=O)N3C(C(=O)O)=C(/C=C\\c4csnn4)CSC23)cs1 (stereo not drawn)", 2.2),
    ("CC(C)(C)C(=O)OCOC(=O)C1=C(/C=C\\c2csnn2)CSC2C(NC(=O)/C(=N\\O)c3csc(N)n3)C(=O)N12 (stereo not drawn)", 2.3),
    ("C=CC1=C(C(=O)O)N2C(=O)[C@@H](NC(=O)/C(=N\\O)c3csc(N)n3)[C@H]2SC1 [CEFDINIR]", 1.9),
]

###

system: Staphylococcus aureus; assay: Antibacterial activity against Staphylococcus aureus ATCC 25923 was determined; assay type: functional
READOUT LABEL: MIC (µg/mL)

Examples with their reported MIC follow.
# MOLECULE, STUDY SYSTEM, NUMERIC READOUT
data = [
    ("C=CC1=C(C(=O)O)N2C(=O)[C@@H](NC(=O)/C(=N\\O)c3csc(N)n3)[C@H]2SC1", "Staphylococcus aureus", 0.39),
    ("CO/N=C(\\C(=O)NC1C(=O)N2C(C(=O)O)=C(/C=C\\c3scnc3C)CSC12)c1csc(N)n1 (stereo not given)", "Staphylococcus aureus", 0.78),
    ("Cc1snnc1/C=C\\C1=C(C(=O)O)N2C(=O)C(NC(=O)/C(=N\\O)c3csc(N)n3)C2SC1 (stereo not given)", "Staphylococcus aureus", 0.39),
]

1: Nc1nc(/C(=N/O)C(=O)NC2C(=O)N3C(C(=O)O)=C(/C=C\c4csnn4)CSC23)cs1 (stereo not given)
2: CO/N=C(\C(=O)NC1C(=O)N2C(C(=O)O)=C(/C=C\c3csnn3)CSC12)c1csc(N)n1 (stereo not given)
Input: Parameter check: reported MIC is higher for which label, 1 or 2 ? In your reply, give the label of the chosen option.
Output: 2

###

test system: Moraxella catarrhalis; experiment: Antibacterial activity against M(B). catarrhalis ATCC 25238 was determined; assay type: functional
READOUT LABEL: MIC (µg/mL)

# MOLECULE, STUDY SYSTEM, MIC [µg/mL]
measured = [
    ("Cc1snnc1/C=C\\C1=C(C(=O)O)N2C(=O)C(NC(=O)/C(=N\\O)c3csc(N)n3)C2SC1 (centres undefined)", "Moraxella catarrhalis", 0.05),
]

1: Nc1nc(/C(=N/O)C(=O)NC2C(=O)N3C(C(=O)O)=C(/C=C\c4csnn4)CSC23)cs1 (centres undefined)
2: C=CC1=C(C(=O)O)N2C(=O)[C@@H](NC(=O)/C(=N\O)c3csc(N)n3)[C@H]2SC1 [CEFDINIR]
Input: Parameter check: reported MIC is higher for which label, 1 or 2 ? In your reply, give the label of the chosen option.
Output: 2

###

experiment: Evaluated for pharmacokinetic parameter area under curve in rat at the dose 50 mg/kg (0-8 hr ); format: ADME, organism-based; design: time < 8 hr, dose 50 mg/kg; conditions: in vivo
READOUT LABEL: AUC at 8 h (ng·h/mL)
Enter your answer as a number in ng·h/mL; do not include the unit.

For this compound ( Nc1nc(/C(=N/O)C(=O)NC2C(=O)N3C(C(=O)O)=C(/C=C\c4csnn4)CSC23)cs1 (stereo unspecified) ), measured AUC at 8 h is 19800

###

experiment: Evaluated for pharmacokinetic parameter Cmax in rat at the dose 50 mg/kg; assay type: ADME, organism-based; design: dose 50 mg/kg; conditions: in vivo
READOUT LABEL: Cmax (ng/mL)

# COMPOUND, Cmax (ng/mL)
records = [
    ("Nc1nc(/C(=N/O)C(=O)NC2C(=O)N3C(C(=O)O)=C(/C=C\\c4csnn4)CSC23)cs1 (stereo not drawn)", 6000),
]

A: C=CC1=C(C(=O)O)N2C(=O)[C@@H](NC(=O)/C(=N\O)c3csc(N)n3)[C@H]2SC1 [CEFDINIR]
B: CC(C)(C)C(=O)OCOC(=O)C1=C(/C=C\c2csnn2)CSC2C(NC(=O)/C(=N\O)c3csc(N)n3)C(=O)N12 (stereo not drawn)
Input: Parameter check: reported Cmax is higher for which label, A or B ? In your reply, give the label of the chosen option.
Output: B
(B: 15200 ng/mL, A: 6000 ng/mL)
